Consider the following molecules; for each one, report its pIC50.
STUDY SYSTEM: BTK^C481S (Homo sapiens (Human), UniProt Q06187, C481S)
Sequence (Q06187 whole entry C481S): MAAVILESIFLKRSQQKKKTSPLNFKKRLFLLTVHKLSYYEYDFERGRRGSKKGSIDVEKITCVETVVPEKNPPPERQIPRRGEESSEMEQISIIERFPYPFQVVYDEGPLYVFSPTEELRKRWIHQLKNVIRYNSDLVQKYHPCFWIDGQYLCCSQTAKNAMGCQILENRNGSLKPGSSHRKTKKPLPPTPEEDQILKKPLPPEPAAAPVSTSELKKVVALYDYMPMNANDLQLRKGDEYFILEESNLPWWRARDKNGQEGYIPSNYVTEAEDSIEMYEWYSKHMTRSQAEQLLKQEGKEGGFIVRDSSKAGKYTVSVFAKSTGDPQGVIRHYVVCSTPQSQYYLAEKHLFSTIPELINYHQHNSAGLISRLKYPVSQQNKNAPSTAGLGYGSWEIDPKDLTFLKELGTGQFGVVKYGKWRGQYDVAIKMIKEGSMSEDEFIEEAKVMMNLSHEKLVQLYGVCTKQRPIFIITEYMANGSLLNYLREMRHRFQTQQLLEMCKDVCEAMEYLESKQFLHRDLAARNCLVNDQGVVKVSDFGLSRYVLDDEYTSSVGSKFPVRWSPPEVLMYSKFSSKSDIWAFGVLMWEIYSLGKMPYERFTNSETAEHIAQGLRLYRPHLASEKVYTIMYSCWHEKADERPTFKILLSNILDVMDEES
ASSAY METHOD TEXT: BTK enzyme activity assay (33P-ATP filter-binding)
TEST CONDITIONS: 200 μM ATP; 20 min pre-incubation, 2 h reaction at room temperature; radiometric filter-binding
Formally, pIC50 is defined as -log10 of the concentration c, with c in mol/L.

## Input Determine from records and report pIC50 for O=C(c1ccc(Oc2ccccc2)cc1Cl)c1c[nH]c2ncc(F)c(N[C@@H]3CC[C@@H](CO)OC3)c12 [Compound 5]
## Output 8.05

## Input Determine from records and report pIC50 for CO[C@@H]1C[C@@H](CO)OC[C@@H]1Nc1c(C#N)cnc2[nH]cc(C(=O)c3ccc(Oc4ccccc4)cc3Cl)c12 [Compound 3]
## Output 7.13

## Input Determine from records and report pIC50 for N#Cc1cnc2[nH]cc(C(=O)c3ccc(Oc4cccc(F)c4)cc3Cl)c2c1N[C@@H]1CC[C@@H](CO)OC1 [Compound 1]
## Output 7.23

## Input Determine from records and report pIC50 for N#Cc1cnc2[nH]cc(C(=O)c3ccc(Oc4ccccc4)cc3Cl)c2c1N[C@@H]1CC[C@@H](CO)OC1 [Compound 4]
## Output 8.13

## Input Determine from records and report pIC50 for N#Cc1cnc2[nH]cc(C(=O)c3ccc(Oc4ccccc4F)cc3Cl)c2c1N[C@@H]1CC[C@@H](CO)OC1 [Compound 2]
## Output 7.93
